Answer each item with its documented TGI.
- Test system: U251 CNS
- assay_remarks: NCI tumour cell line growth inhibition, 48 h

Please review the entries below; each comes with its answer.
In [3]: df
Out[3]:
                              smiles_str   reading
0        O=C1NC2=C(CCCC/C2=N\O)C12CCCCC2  > 100 µM
1  CCOC(=O)c1nn2c(nc1=O)sc1ccc3ccccc3c12  > 100 µM
2        N#CN=[N+]([O-])c1ccc(C(=O)O)cc1     33 µM

Then this molecule:
Prompt line: Please give the measured TGI for this molecule: COc1ccc(/C=C/C(=O)c2cc(OC)c(OC)c(OC)c2)cc1OCc1cn(Cc2ccc(F)cc2)nn1
Response line: 19.4 µM

====

Consider the following molecules; for each one, report its TGI.
- System: NCI-H460 lung
- assay_remarks: NCI tumour cell line growth inhibition, 48 h
One number for each entry, in µM.

In [3]: df
Out[3]:
                                   molecule  unit_symbol  reading
0  c1ccc(-c2nnc(-c3ccccn3)c3c2C[C@@H]2C[C@@H]4Cc5c(-c6ccccn6)nnc(-c6ccccn6)c5[C@@H]4[C@H]32)nc1           µM       88

Parameter requested: TGI. Apply to each item below.
1. C[C@]12CC[C@@H]3c4ccc(OC(=O)N(CCCl)CCCl)cc4CC[C@H]3[C@@H]1CC[C@@H]2O
2. COc1ccc(/C=C/C(=O)c2cc(OC)c(OC)c(OC)c2)cc1OCc1cn(Cc2ccc(F)cc2)nn1
3. CCN1CCC(O)(c2ccc(Oc3ccccc3)cc2)C(C(=O)c2ccc(Oc3ccccc3)cc2)C1 (stereo not given)

Response line:
1: 12.9; 2: 15.4; 3: 13.2

====

Kindly state TGI for each of the entries shown.
- Test system: SK-MEL-5 melanoma
- assay_remarks: NCI tumour cell line growth inhibition, 48 h

In [3]: df
Out[3]:
                                   compound   reading
0  O=C(O)C1=C(O)C(C(=O)O)C23CCCCCCCCCCC12C(C(=O)O)C(O)=C3C(=O)O (centres undefined)  > 100 µM
1  COc1ccc(-c2cc3c(c4cc(OC)ccc24)C(=O)OC3=O)cc1  > 100 µM
2  O=C(Nc1ccc([As](=O)(O)O)cc1)Nc1cccc(Cl)c1Cl  > 100 µM

// each compound listed below needs its TGI
1. Cc1c[n+](=O)c2ccccc2n1[O-]
2. C[C@]12C[C@H](CCCCCCNCCOC(=O)NCCCc3ccc(N(CCCl)CCCl)cc3)C3=C4CCC(=O)C=C4CCC3C1CC[C@@H]2O (some centres undefined)
3. C/C=C(\C)C(=O)NC1=CC[C@@]2(C)C(=CCC3C2CC[C@@]2(C)C3CC[C@@H]2C(C)N(C)C)C1=O (some centres undefined)
4. C=CCNC(=O)N(CCCCC(NC(C)=O)C(=O)NCc1ccccc1)Cc1ccccc1 (centres undefined)
5. CCc1ccccc1NC(=O)C1=C(C)NC(C)=C(C(=O)Nc2ccccc2CC)C1c1ccccc1Cl
6. Cc1cc(CC(=O)NCCO)n(CCO)c(=O)c1
7. CCN(Cc1ccc(Cl)cc1)c1ccc(CO)c(Cl)c1
8. O=C1C(N2CCN(c3ccccn3)CC2)=C(Cl)C(=O)c2ncccc21

Response line:
> 100 µM
3.02 µM
2.95 µM
> 100 µM
> 100 µM
> 100 µM
13.2 µM
3.27 µM

Respectfully, I request TGI for each entry included below.
1. OC1c2ccccc2CC12Cc1ccccc1C2 (centres undefined)
2. O=c1[nH]c(=O)c2cn[nH]c2[nH]1
3. CC(C)=CC1C[C@H](C2CC=C3C2(C)CCC2[C@@]3(C)C(=O)CC3[C@]2(C)C=CC(=O)[C@]3(C)CO)CO1 (some centres undefined)
4. O=C(O)CCN(CCCCN(CCC(=O)O)CCC(=O)O)CCC(=O)O
5. S=c1nc(N2CCCCC2)c2cn[nH]c2[nH]1

Response line:
49.6 µM
> 100 µM
25 µM
> 100 µM
> 100 µM

Go through the items and report each one's TGI.
1. CC1=C(C(=O)Nc2cc(=O)n(C)c(=O)n2C)C(c2ccco2)C(C(=O)Nc2cc(=O)n(C)c(=O)n2C)=C(C)N1
2. COC(=O)C1CC23CCCN4CCC5(c6ccccc6N(C=O)C15CC2)C43 (centres undefined)
3. BrC1=CCC23CC=C(Br)[C@H]4CC2(COC3)C[C@@H]1O4 (some centres undefined)

Response line:
> 100 µM
> 100 µM
> 100 µM
